target: human α7-containing nAChRs (Homo sapiens); test: cell-based; type: cell-based; settings: SEM
Sequence (P36544 23-502 limits assumed): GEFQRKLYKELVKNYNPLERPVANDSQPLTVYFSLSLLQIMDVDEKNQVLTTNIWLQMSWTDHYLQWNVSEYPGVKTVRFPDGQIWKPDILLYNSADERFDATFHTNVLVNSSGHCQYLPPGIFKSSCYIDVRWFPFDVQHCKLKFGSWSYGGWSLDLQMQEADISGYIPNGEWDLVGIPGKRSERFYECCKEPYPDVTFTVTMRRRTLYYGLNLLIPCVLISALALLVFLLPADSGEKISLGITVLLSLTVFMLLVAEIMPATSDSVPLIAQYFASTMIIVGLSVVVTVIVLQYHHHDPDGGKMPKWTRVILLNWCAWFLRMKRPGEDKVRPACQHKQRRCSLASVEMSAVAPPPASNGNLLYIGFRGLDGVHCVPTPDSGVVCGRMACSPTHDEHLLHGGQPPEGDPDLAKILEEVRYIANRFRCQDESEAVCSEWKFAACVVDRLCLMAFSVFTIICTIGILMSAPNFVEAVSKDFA
pIC50: −log10 of the molar value. Where a SMILES comes first, the peptide text is derived from it. Bridges are numbered along the chain shown (N, C = ends).
Measurement label: pIC50

>  <Compound>
CC[C@H](C)[C@@H]1NC(=O)[C@H](CC(N)=O)NC(=O)[C@@H]2CCCN2C(=O)[C@H](CC(N)=O)NC(=O)[C@H](CC(N)=O)NC(=O)[C@H](C(C)C)NC(=O)[C@H](CCCNC(=N)N)NC(=O)[C@@H]2CSSC[C@H](NC(=O)CNC(=O)[C@@H](N)CO)C(=O)N[C@@H](CSSC[C@@H](C(N)=O)NC1=O)C(=O)N[C@@H](CO)C(=O)N[C@@H](CCCNC(=N)N)C(=O)N[C@@H](CC(N)=O)C(=O)N1CCC[C@H]1C(=O)N[C@@H](C)C(=O)N2 [gLsIA [∇R6]] (H-SGCCSRNPACRVNNPNIC-NH2; disulfide 3-10, 4-18)

>  <Measured on>
human α7-containing nAChRs (Homo sapiens)

>  <Reported result>
5.10

$$$$
>  <Compound>
C[C@@H]1NC(=O)[C@@H]2CSSC[C@@H](C(N)=O)NC(=O)[C@@H]3CCCN3C(=O)[C@H](Cc3c[nH]cn3)NC(=O)[C@H](CC(N)=O)NC(=O)[C@H](Cc3c[nH]cn3)NC(=O)[C@H](CCCNC(=N)N)NC(=O)[C@H](CSSC[C@H](NC(=O)[C@@H](N)CO)C(=O)N2)NC(=O)[C@H](C)NC(=O)[C@@H]2CCCN2C(=O)[C@H](CC(N)=O)NC(=O)[C@H](CCCNC(=N)N)NC1=O [gAusIA [∆16]] (H-SCCARNPACRHNHPC-NH2; disulfide 2-9, 3-15)

>  <Measured on>
human α7-containing nAChRs (Homo sapiens)

>  <Reported result>
4.92

$$$$
>  <Compound>
CC[C@H](C)[C@@H]1NC(=O)[C@H](CC(N)=O)NC(=O)[C@@H]2CCCN2C(=O)[C@H](CC(N)=O)NC(=O)[C@H](CC(N)=O)NC(=O)[C@H](C(C)C)NC(=O)[C@H](CCCNC(=N)N)NC(=O)[C@@H]2CSSC[C@H](NC(=O)CNC(=O)[C@@H](N)CO)C(=O)N[C@@H](CSSC[C@@H](C(N)=O)NC1=O)C(=O)N[C@@H](CCCNC(=N)N)C(=O)N[C@@H](CC(N)=O)C(=O)N1CCC[C@H]1C(=O)N[C@@H](C)C(=O)N2 [gLsIA [S5R]] (H-SGCCRNPACRVNNPNIC-NH2; disulfide 3-9, 4-17)

>  <Measured on>
human α7-containing nAChRs (Homo sapiens)

>  <Reported result>
6.62

$$$$

* * *

A collection of compounds and their measured pIC50
biological target: human α7-containing nAChRs (Homo sapiens); experiment: cell-based; format: cell-based; conditions: SEM
pIC50: −log10 of the molar value. Where a SMILES comes first, the peptide text is derived from it. Bridges are numbered along the chain shown (N, C = ends).

>  <Compound>
CC(C)[C@H](NC(=O)[C@@H]1CSSC[C@@H]2NC(=O)[C@@H](NC(=O)[C@@H](N)CO)CSSC[C@H](NC(=O)[C@H](C)NC(=O)[C@@H]3CCCN3C(=O)[C@H](CC(N)=O)NC(=O)[C@H](CCCNC(=N)N)NC(=O)[C@H](CO)NC2=O)C(=O)N[C@@H](CCCNC(=N)N)C(=O)N[C@@H](Cc2c[nH]cn2)C(=O)N[C@@H](CC(N)=O)C(=O)N[C@@H](Cc2c[nH]cn2)C(=O)N2CCC[C@H]2C(=O)N1)C(N)=O [gAusIA [A4S]] (H-SCCSRNPACRHNHPCV-NH2; disulfide 2-9, 3-15)

>  <Measured on>
human α7-containing nAChRs (Homo sapiens)

>  <pIC50>
4.15

$$$$
>  <Compound>
CC[C@H](C)[C@@H]1NC(=O)[C@H](CC(N)=O)NC(=O)[C@@H]2CCCN2C(=O)[C@H](CC(N)=O)NC(=O)[C@H](CC(N)=O)NC(=O)[C@H](C(C)C)NC(=O)[C@H](CCCNC(=N)N)NC(=O)[C@@H]2CSSC[C@H](NC(=O)[C@@H](NC(=O)CNC(=O)[C@@H](N)CO)CSSC[C@@H](C(N)=O)NC1=O)C(=O)N[C@@H](CO)C(=O)N[C@@H](CCCNC(=N)N)C(=O)N[C@@H](CC(N)=O)C(=O)N1CCC[C@H]1C(=O)N[C@@H](C)C(=O)N2 [rLsIA [∇R6]] (H-SGCCSRNPACRVNNPNIC-NH2; disulfide 3-18, 4-10)

>  <Measured on>
human α7-containing nAChRs (Homo sapiens)

>  <pIC50>
4.18

$$$$

* * *

IC50 reference
biological target: human α7-containing nAChRs (Homo sapiens); assay: cell-based; assay type: cell-based; conditions: SEM
Where a SMILES comes first, the peptide text is derived from it. Bridges are numbered along the chain shown (N, C = ends).
Measurement label: IC50

>  <Compound>
CC(C)[C@H](NC(=O)[C@@H]1CSSC[C@@H]2NC(=O)[C@@H](NC(=O)[C@@H](N)CO)CSSC[C@H](NC(=O)[C@H](C)NC(=O)[C@@H]3CCCN3C(=O)[C@H](CC(N)=O)NC(=O)[C@H](CO)NC2=O)C(=O)N[C@@H](CCCNC(=N)N)C(=O)N[C@@H](Cc2c[nH]cn2)C(=O)N[C@@H](CC(N)=O)C(=O)N[C@@H](Cc2c[nH]cn2)C(=O)N2CCC[C@H]2C(=O)N1)C(N)=O [gAusIA [A4S ∆5]] (H-SCCSNPACRHNHPCV-NH2; disulfide 2-8, 3-14)

>  <Reported result>
0.428 µM

$$$$
>  <Compound>
C[C@@H]1NC(=O)[C@@H]2CSSC[C@H](NC(=O)[C@H](C)NC(=O)[C@@H]3CCCN3C(=O)[C@H](CC(N)=O)NC(=O)[C@H](CCCNC(=N)N)NC1=O)C(=O)N[C@@H](CCCNC(=N)N)C(=O)N[C@@H](Cc1c[nH]cn1)C(=O)N[C@@H](CC(N)=O)C(=O)N[C@@H](Cc1c[nH]cn1)C(=O)N1CCC[C@H]1C(=O)N[C@H](C(N)=O)CSSC[C@H](NC(=O)[C@@H](N)CO)C(=O)N2 [rAusIA [∆16]] (H-SCCARNPACRHNHPC-NH2; disulfide 2-15, 3-9)

>  <Reported result>
60 µM

$$$$
>  <Compound>
CC(C)[C@H](NC(=O)[C@@H]1CSSC[C@H](NC(=O)[C@@H](N)CO)C(=O)N[C@H]2CSSC[C@H](NC(=O)[C@H](C)NC(=O)[C@@H]3CCCN3C(=O)[C@H](CC(N)=O)NC(=O)[C@H](CCCNC(=N)N)NC(=O)[C@H](CO)NC2=O)C(=O)N[C@@H](CCCNC(=N)N)C(=O)N[C@@H](Cc2c[nH]cn2)C(=O)N[C@@H](CC(N)=O)C(=O)N[C@@H](Cc2c[nH]cn2)C(=O)N2CCC[C@H]2C(=O)N1)C(N)=O [rAusIA [A4S]] (H-SCCSRNPACRHNHPCV-NH2; disulfide 2-15, 3-9)

>  <Reported result>
32 µM

$$$$
>  <Compound>
CC[C@H](C)[C@@H]1NC(=O)[C@H](CC(N)=O)NC(=O)[C@@H]2CCCN2C(=O)[C@H](CC(N)=O)NC(=O)[C@H](CC(N)=O)NC(=O)[C@H](C(C)C)NC(=O)[C@H](CCCNC(=N)N)NC(=O)[C@@H]2CSSC[C@H](NC(=O)[C@@H](NC(=O)CNC(=O)[C@@H](N)CO)CSSC[C@@H](C(N)=O)NC1=O)C(=O)N[C@@H](C)C(=O)N[C@@H](CO)C(=O)N[C@@H](CC(N)=O)C(=O)N1CCC[C@H]1C(=O)N[C@@H](C)C(=O)N2 [rLsIA [∇A5]] (H-SGCCASNPACRVNNPNIC-NH2; disulfide 3-18, 4-10)

>  <Reported result>
57 µM

$$$$
>  <Compound>
CC(C)[C@H](NC(=O)[C@@H]1CSSC[C@H](NC(=O)[C@@H](N)CO)C(=O)N[C@H]2CSSC[C@H](NC(=O)[C@H](C)NC(=O)[C@@H]3CCCN3C(=O)[C@H](CC(N)=O)NC(=O)[C@H](CCCNC(=N)N)NC2=O)C(=O)N[C@@H](CCCNC(=N)N)C(=O)N[C@@H](Cc2c[nH]cn2)C(=O)N[C@@H](CC(N)=O)C(=O)N[C@@H](Cc2c[nH]cn2)C(=O)N2CCC[C@H]2C(=O)N1)C(N)=O [rAusIA [∆4]] (H-SCCRNPACRHNHPCV-NH2; disulfide 2-14, 3-8)

>  <Reported result>
11 µM

$$$$
>  <Compound>
CC(C)[C@H](NC(=O)[C@@H]1CSSC[C@H](NC(=O)[C@@H](N)CO)C(=O)N[C@H]2CSSC[C@H](NC(=O)[C@H](C)NC(=O)[C@@H]3CCCN3C(=O)[C@H](CC(N)=O)NC(=O)[C@H](C)NC2=O)C(=O)N[C@@H](CCCNC(=N)N)C(=O)N[C@@H](Cc2c[nH]cn2)C(=O)N[C@@H](CC(N)=O)C(=O)N[C@@H](Cc2c[nH]cn2)C(=O)N2CCC[C@H]2C(=O)N1)C(N)=O [rAusIA [∆5]] (H-SCCANPACRHNHPCV-NH2; disulfide 2-14, 3-8)

>  <Reported result>
51 µM

$$$$
>  <Compound>
CC[C@H](C)[C@@H]1NC(=O)[C@H](CC(N)=O)NC(=O)[C@@H]2CCCN2C(=O)[C@H](CC(N)=O)NC(=O)[C@H](CC(N)=O)NC(=O)[C@H](C(C)C)NC(=O)[C@H](CCCNC(=N)N)NC(=O)[C@@H]2CSSC[C@H](NC(=O)CNC(=O)[C@@H](N)CO)C(=O)N[C@@H](CSSC[C@@H](C(N)=O)NC1=O)C(=O)N[C@@H](C)C(=O)N[C@@H](CO)C(=O)N[C@@H](CC(N)=O)C(=O)N1CCC[C@H]1C(=O)N[C@@H](C)C(=O)N2 [gLsIA [∇A5]] (H-SGCCASNPACRVNNPNIC-NH2; disulfide 3-10, 4-18)

>  <Reported result>
48 µM

$$$$
>  <Compound>
CC[C@H](C)[C@@H]1NC(=O)[C@H](CC(N)=O)NC(=O)[C@@H]2CCCN2C(=O)[C@H](CC(N)=O)NC(=O)[C@H](CC(N)=O)NC(=O)[C@H](C(C)C)NC(=O)[C@H](CCCNC(=N)N)NC(=O)[C@@H]2CSSC[C@H](NC(=O)[C@@H](NC(=O)CNC(=O)[C@@H](N)CO)CSSC[C@@H](C(N)=O)NC1=O)C(=O)N[C@@H](CCCNC(=N)N)C(=O)N[C@@H](CC(N)=O)C(=O)N1CCC[C@H]1C(=O)N[C@@H](C)C(=O)N2 [rLsIA [S5R]] (H-SGCCRNPACRVNNPNIC-NH2; disulfide 3-17, 4-9)

>  <Reported result>
27 µM

$$$$
